Test: gradient 5% acetonitrile 3 min, to 50% in 2 min, to 85% in 15 min, held 3 min, 100 µL/min
Conditions: column: Zorbax Extend-C18 2.1 x 50 mm; eluents: water / acetonitrile, 0.1% formic acid
Attribute Measured: RP-LC retention time (s)
Give bare numbers, in s.

Use these answered entries as a reference point.
>>> measured_value("COC(=O)c1ccc2nc(NC(=O)C3CCCCC3)sc2c1")
932
>>> measured_value("Cc1c(C(=O)NCCCN2CCC(C)CC2)sc2ncn(CC(=O)N3CCCCC3C)c(=O)c12 (stereo not given)")
628

Batch: RP-LC retention time for all items listed.
1. CCN1CCN(C(=O)C2CCN(S(=O)(=O)c3ccc4c(c3)NC(=O)CO4)CC2)CC1
2. COCC(C)NC(=O)c1ccc2c(c1)CCCN2S(C)(=O)=O (stereo not given)

1. 664
2. 679

Batch: RP-LC retention time for all items listed.
1. O=c1ccn(-c2cccc(F)c2)nc1-c1nc(-c2ccc(OCc3ccccc3)cc2)no1
2. CCN1CCCC1CNC(=O)c1cc(S(=O)(=O)CC)c(N)cc1OC (stereo not given)
3. COc1ccc(Br)c(CC2C(=O)Nc3ccccc32)c1 (stereo not given)
4. Cn1c(=O)c2cc(C(=O)Nc3cccc(Cl)c3)cnc2n(-c2ccccc2)c1=O
5. Cc1cc(Nc2ccccc2)nn1C(=O)c1ccc([N+](=O)[O-])cc1
6. O=C(Nc1nc(-c2ccccc2)cs1)c1c(-c2ccccc2)nc2n1CCS2(=O)=O

[1070, 591, 944, 980, 987, 1010]

Batch: RP-LC retention time for all items listed.
1. CC(C)N1CCn2cc(S(=O)(=O)Nc3ccc(C#N)cc3)cc2C1=O
2. Cn1nc(-c2nnc(-c3ccc(F)cc3)o2)c2c1CCN(S(=O)(=O)c1ccccc1F)C2
3. Cc1ccc(C(=O)N2C[C@@H]3C[C@H]2C[C@@H]3NS(C)(=O)=O)cc1F
4. O=C(C1=CN(c2ccc3c(c2)OCCO3)c2cc(F)ccc2S1(=O)=O)N1CCOCC1
5. Cc1cccc(N2CCN(C3=NC(=O)C(Cc4ccccc4)S3)CC2)c1 (stereo not given)

[719, 937, 676, 750, 910]

Batch: RP-LC retention time for all items listed.
1. O=C(Cc1csc(NC(=O)c2ccsc2)n1)NCc1nc2ccccc2[nH]1
2. CC1CCC(NC(=O)Cn2nc(C(=O)N3CCCC3)c3ccccc32)CC1 (stereo not given)
3. Cc1nc(-c2csc(S(=O)(=O)N3CCCC(C(=O)Nc4ccc(F)cc4F)C3)c2)no1 (stereo not given)

1: 573; 2: 892; 3: 952

Batch: RP-LC retention time for all items listed.
1. O=C(NCc1noc(COc2ccccc2)n1)c1ccc(-c2noc(C3CC3)n2)cc1
2. CC(C)c1cc(C(=O)NC2CCCC2)nc2ccnn12

[940, 979]

###

Would you mind telling me the reported RP-LC retention time of each entry?
Test: gradient 5% acetonitrile 3 min, to 50% in 2 min, to 85% in 15 min, held 3 min, 100 µL/min
Conditions: column: Zorbax Extend-C18 2.1 x 50 mm; eluents: water / acetonitrile, 0.1% formic acid
Give bare numbers, in s.

Use these answered entries as a reference point.
>>> measured_value("Cc1nc(-c2cc(S(=O)(=O)N3CCC(C(=O)NC4CCCCCC4)CC3)c(C)s2)no1")
707
>>> measured_value("CCOC(=O)c1[nH]c(C)c(C(=O)C(C)N(CC(C)C)C(=O)c2ccc(C)cc2)c1C (centres undefined)")
1030
>>> measured_value("COCCCNC(=O)c1ccc(-n2nc(C)c3c2CCCC3=O)cc1")
660
>>> measured_value("CC1=C(c2ccc(C)cc2)S(=O)(=O)N=C1N1CCC(NC(=O)c2cc(C)n(C)n2)CC1")
769
>>> measured_value("CN1CCN(CCNC(=O)CSCc2nc3cccnc3n2C2CCCCC2)CC1")
600
>>> measured_value("Brc1ccc(Nc2c(-c3ccc4c(c3)OCO4)nc3cnccn23)cc1")
921
>>> measured_value("Cn1cccc1C(=O)C(=O)NCc1ccc2c(c1)OCO2")
793
>>> measured_value("Cc1ccc(-c2cn3c(CC(=O)NC4CCCC4)csc3n2)cc1C")
798

Now look at this entry.
// Input: CC(=O)N1CCc2sc(S(=O)(=O)N3CCN(c4ccc(C)cc4)CC3)cc2C1 . Output its RP-LC retention time only.
926

Each recorded value in this set is attributed to the METLIN SMRT retention time set (Domingo-Almenara et al. 2019).
